src = paper PMC5910394

Target: Ile83Glu anti-HER2 memAb
Sequence (heavy, as listed by the source, chain 1 of 2): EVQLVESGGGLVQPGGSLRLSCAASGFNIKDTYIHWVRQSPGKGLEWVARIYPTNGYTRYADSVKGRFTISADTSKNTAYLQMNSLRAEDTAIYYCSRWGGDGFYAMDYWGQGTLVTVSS
Sequence (light, as listed by the source, chain 2 of 2): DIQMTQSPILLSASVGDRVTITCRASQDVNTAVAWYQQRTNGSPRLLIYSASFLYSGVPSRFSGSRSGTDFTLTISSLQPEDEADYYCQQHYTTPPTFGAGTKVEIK
Assay: SPR; memAb variant amine-coupled to a CM5 chip, peptide flowed over at 30 uL/min, HBS-EP+, 25 °C, Biacore T100, 1:1 binding model
Positions of bridges follow the written chain, without caps; N, C: chain ends. Non-standard residues stand in square brackets, D forms with d. No end group written: not given here. Dip = N[C@H](C(=O)O)C(c1ccccc1)c1ccccc1
PROPERTY LABEL: Kd

q: Report Kd for Ac-CQFD[Dip]STRRLRCGGSK (disulfide 1-12 (inferred)) [5-diphenylalanine long meditope ((Ac)CQFDA(Ph)2…)]
a: < 0.026 nM
